Assay: chemical genetic growth profiling, strain panel (AID 1159580);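 note: tested at 20 µM; growth read once vehicle control cultures reached saturation at 30 °C; lower values mean less growth of the strain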
Conditions: S. cerevisiae deletion strains, growth OD, locus YBR021W, strain FUR4
Hit rate of the full screen: of about 5,500 compounds, about 2,000 (36%) were called active. Inconclusive results (about 18%) are left out. Cut-off read from the data, not from the text of the source: active = normalized growth mostly below about 0.91 (no sharp cut-off); inconclusive = no clear call, values can overlap the other calls; inactive = mostly above about 0.92. This is one part of the list. Where a SMILES comes first, the peptide text is derived from it.
Permitted responses: t (active), f (inactive)

Below are worked cases with known answers.
{"Compound": "CN(C)CCC(c1ccc(Br)cc1)c1ccccn1 (centres undefined)", "Cat": "f"}
{"Compound": "C[C@@H]1O[C@@H](O[C@H]2C[C@@H](O)[C@]3(CO)C4C(CC[C@]3(O)C2)[C@@]2(O)CC[C@H](C3=CC(=O)OC3)[C@@]2(C)C[C@H]4O)[C@H](O)[C@H](O)[C@H]1O (some centres undefined)", "Cat": "f"}
{"Compound": "NCC(CC(=O)O)c1ccc(Cl)cc1 (centres undefined)", "Cat": "f"}
{"Compound": "CN(C)CCOC(=O)C(c1ccccc1)C1(O)CCCC1 (centres undefined)", "Cat": "f"}
{"Compound": "C[C@H](N)[C@H](O)c1cccc(O)c1", "Cat": "f"}
{"Compound": "NCCCCC(N)C(=O)NC(Cc1ccc(O)cc1)C(=O)NC(CCCCN)C(=O)O (stereo not drawn) (H-Lys-Tyr-Lys-OH; configuration not given here)", "Cat": "f"}
{"Compound": "C[C@H](CCC(=O)O)[C@H]1CCC2C3C(CC[C@@]21C)[C@@]1(C)CC[C@@H](O)C[C@H]1C[C@H]3O (some centres undefined)", "Cat": "f"}
{"Compound": "CSc1ccc2c(c1)N(CCC1CCCCN1C)c1ccccc1S2 (centres undefined)", "Cat": "t"}

Shifting focus to the compound that follows.
Recorded test outcome, item C[C@H](N)[C@H](O)c1ccccc1 f
